- experimentalSystem: folate binding protein (FBP) (Bos taurus, UniProt P02702)
- Sequence (P02702 20-234): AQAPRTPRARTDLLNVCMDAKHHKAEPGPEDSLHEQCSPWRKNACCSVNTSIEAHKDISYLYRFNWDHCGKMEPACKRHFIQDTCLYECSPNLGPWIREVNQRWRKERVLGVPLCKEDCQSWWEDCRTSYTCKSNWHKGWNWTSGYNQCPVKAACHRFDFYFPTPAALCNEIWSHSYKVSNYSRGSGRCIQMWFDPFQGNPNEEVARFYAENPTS
pKd: −log10 of the molar value.

itemSmiles: Nc1nc2ncc(CNc3ccc(C(=O)N[C@@H](CCC(=O)O)C(=O)O)cc3)nc2c(=O)[nH]1
pKd: 5.80

---

- experimentalSystem: human MMP-3 (Homo sapiens, UniProt P08254)
- Sequence (P08254 100-477): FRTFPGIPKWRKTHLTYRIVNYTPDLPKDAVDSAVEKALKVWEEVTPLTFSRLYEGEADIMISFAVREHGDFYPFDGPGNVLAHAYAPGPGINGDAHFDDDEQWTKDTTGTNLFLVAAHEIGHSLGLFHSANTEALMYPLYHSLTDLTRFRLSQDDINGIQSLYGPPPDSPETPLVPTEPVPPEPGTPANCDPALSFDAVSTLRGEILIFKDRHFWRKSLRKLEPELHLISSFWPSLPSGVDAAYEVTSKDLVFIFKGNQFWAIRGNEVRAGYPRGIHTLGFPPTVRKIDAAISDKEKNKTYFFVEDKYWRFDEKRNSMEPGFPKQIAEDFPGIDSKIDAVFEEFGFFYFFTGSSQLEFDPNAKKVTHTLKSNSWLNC

itemSmiles: CNC(=O)[C@H](Cc1c[nH]c2ccccc12)NC(=O)[C@@H](CC(=O)NO)CC(C)C
IC50: 130 nM
